Entry source: ChEMBL document CHEMBL1151433

system: Haemophilus influenzae; assay: Antibacterial activity against beta lactamase-negative Haemophilus influenzae […] isolated from respiratory tract infected patients after 20 to 24 hrs by broth microdilution method; type: functional; conditions: ATCC 49247
Listed compounds paired with reported MIC50

Please review the following examples before continuing.
CO/N=C(\C(=O)N[C@@H]1C(=O)N2C(C(=O)O)=C(COC(N)=O)CS[C@H]12)c1ccco1
1 µg/mL
CC[C@H]1OC(=O)[C@H](C)[C@@H](O[C@H]2C[C@@](C)(OC)[C@@H](O)[C@H](C)O2)[C@H](C)[C@@H](O[C@@H]2O[C@H](C)C[C@H](N(C)C)[C@H]2O)[C@](C)(O)C[C@@H](C)CN(C)[C@H](C)[C@@H](O)[C@]1(C)O
1 µg/mL
C[C@H]1COc2c(N3CCN(C)CC3)c(F)cc3c(=O)c(C(=O)O)cn1c23.C[C@H]1COc2c(N3CCN(C)CC3)c(F)cc3c(=O)c(C(=O)O)cn1c23.O
≤ 0.06 µg/mL
C[C@@H](O)[C@H]1C(=O)N2C(C(=O)O)=C(S[C@@H]3CN[C@H](C(=O)N(C)C)C3)[C@H](C)[C@H]12
0.06 µg/mL
CC[C@H]1OC(=O)[C@H](C)C(=O)[C@H](C)[C@@H](O[C@@H]2O[C@H](C)C[C@H](N(C)C)[C@H]2O)[C@](C)(OC)C[C@@H](C)C(=O)[C@H](C)[C@H]2N(CCCCn3cnc(-c4cccnc4)c3)C(=O)O[C@]12C
2 µg/mL

Consider the record given below.
Just so you know, measured MIC50 for `C=CC1=C(C(=O)O)N2C(=O)[C@@H](NC(=O)/C(=N\O)c3csc(N)n3)[C@H]2SC1` came out at 0.25 µg/mL
